- System: NCI-H23 lung
- MEASUREMENT PROTOCOL: NCI tumour cell line growth inhibition, 48 h
Mark t for reported TGI of 10 µM or greater; mark f for anything smaller.

Observe how each entry below is paired with its result.
INSERT INTO results (molecule, group_label) VALUES
  ('N=c1nnc2ccc(Cl)cc2n1O', 't'),
  ('CCC(=C/[C@H](C)C/C=C/C(C)=C/[C@@H](C)C(=O)[C@@H](C)[C@H](O)[C@@H](C)CC)/C=C/[C@H]1OC(=O)C=C[C@@H]1C', 'f'),
  ('COCCOc1ccc(-c2nc3ccc(-c4nc5ccc(N6CCN(C)CC6)cc5[nH]4)cc3[nH]2)cc1', 'f'),
  ('COc1cc(S(=O)(=O)Nc2nc(-c3ccc(N4C(=O)C(CC(=O)O)SC4c4cccs4)cc3)cs2)ccc1Cl (centres undefined)', 't'),
  ('O=C(N/N=C/c1ccc(Cl)cc1)c1c(Cl)c(Cl)c(Cl)c(Cl)c1-c1nc2ccccc2[nH]1', 't');

Answer whether TGI of O=C(/C=C/c1ccc2c(c1)OCO2)c1ccc(O)cc1 is greater than or equal to 10 µM.
t

Now give it for NC1(c2cc3ccccc3s2)CCCC1 too.
t

Lookup CCn1c(-c2nonc2N)nc2c(C#CC(C)(C)O)nc(OC[C@@H](N)c3ccccc3)cc21
t

Similarly, S=C(N/N=C(/c1ccccc1)c1ccccn1)N(Cc1ccccn1)Cc1ccccn1 ?
f

Thanks! And COc1nncc2[nH]c(-c3ccccc3)cc12 ?
t

Follow-up item: NS(=O)(=O)c1nnc(NC(=O)Nc2ccc(Cl)c(Cl)c2)s1
t

Can you handle O=[N+]([O-])c1cc(C=NC23CC4CC(CC(C4)C2)C3)ccc1Cl next?
t

Again, but for C/C(=N/Nc1ccc([N+](=O)[O-])cc1[N+](=O)[O-])C(CC(C(=O)NCc1ccccc1)/C(C)=N\Nc1ccc([N+](=O)[O-])cc1[N+](=O)[O-])C(=O)NCc1ccccc1 (centres undefined)
t

Let us now turn to O=C1CCC2(c3ccc(Cl)cc3)Nc3ccncc3N12 (centres undefined)
t

###

- Test system: SW-620 colon
- MEASUREMENT PROTOCOL: NCI tumour cell line growth inhibition, 48 h
MEASURED METRIC: TGI

// TGI lookup, key: CCOC(=O)N1CCN(Cc2cc(=O)n3ccc(C)cc3n2)CC1
> 100 µM

Would you kindly repeat that for N[C@@H](CCC(=O)NCP(=O)(O)O)C(=O)O ?
> 100 µM

What about this molecule? CCn1c(-c2nonc2N)nc2c(C#CC(C)(C)O)nc(OC[C@@H](N)c3ccccc3)cc21
9.5 µM

# repeat for O=C1CCCCC1CN1CCCCC1 (stereo unspecified)
> 100 µM

###

- System: HCT-15 colon
- MEASUREMENT PROTOCOL: NCI tumour cell line growth inhibition, 48 h
MEASURED METRIC: TGI

Observe how each entry below is paired with its result.
INSERT INTO measurements (compound, test_value) VALUES
  ('c1ccc2c3[nH]c(c2c1)=Nc1ccc(cc1)-c1nc2cc(ccc2o1)N=c1[nH]c(c2ccccc12)=Nc1ccc2nc(oc2c1)-c1ccc(cc1)N=3', '> 100 µM'),
  ('Nc1ccc(C2=NNC(=O)Cc3cc4c(cc32)OCCO4)cc1Cl', '> 50 µM'),
  ('COc1cc(-c2ccc3cc(OC)c(OC)c(OC)c3c2)cc(OC)c1OC', '> 100 µM'),
  ('CCOC(=O)C1=C(C(=O)OCC)C2c3ccccc3C=CN2C(C(=O)OCC)=C(SC)S1 (stereo not given)', '> 100 µM');

Please examine the following record next.
Item under review: COc1cc(C2CC(C)(O)Oc3cc4c(cc32)OCO4)cc(OC)c1OC (stereo not given) . Reported TGI?
> 100 µM
